Recorded below: IC50, system Androgen receptor (Homo sapiens).
A complete answer gives the number followed by the unit.

Tell me IC50 reported for N#Cc1ccc(C2=NOC3CCCCCCC23)cc1C(F)(F)F (racemic) 295 nM

Query IC50 for `O=[N+]([O-])c1ccc(C2=NO[C@H]3CCCCC[C@@H]23)c(C(F)(F)F)c1` 389 nM

Annotate the compound O=[N+]([O-])c1ccc(C2=NOC3CCCCCCC23)c(C(F)(F)F)c1 (cis isomer) with its measured IC50. 741 nM

Let me know recorded IC50 for N#Cc1ccc(C2=NOC3CCCCCC23)c(C(F)(F)F)c1 (stereo not given) , thanks. 1150 nM

Answer with the recorded IC50 of N#Cc1ccc(C2=NOC3CCCCCC23)cc1C(F)(F)F (racemic) only. 43.7 nM
